Below, each entry is listed alongside its reported IC50.
target: human Syk (GST-Syk) (Homo sapiens, UniProt P43405); construct: A cDNA fragment encoding human Syk openreading frame was cloned; made in house; host or cells: Sf21 insect cells (baculovirus, transfer vector pAcG2T); assay: Syk tyrosine kinase inhibitory assay; assay type: biochemical; settings: in vitro; compounds as yielded by solid phase synthesis, purity about 40 to 90%; read-out: Activity grade (IC50 class)

Ask: GET /values?readout=IC50&item= COc1ccc(-c2cc3nccn3c(N(CCO)Cc3ccccc3)n2)cc1OC [Example 9-29]
Reply: < 500 nM

Others:
Ask: GET /values?readout=IC50&item= COc1ccc(-c2cc3ncnn3c(Nc3ccc4cn[nH]c4c3)n2)cc1OC [Example 11-103]
Reply: < 500 nM

Ask: GET /values?readout=IC50&item= COc1ccc(-c2cc3nccn3c(N3CCC(N4CCCCC4)CC3)n2)cc1OC [Example 9-63]
Reply: 2000 to 10000 nM

Ask: GET /values?readout=IC50&item= CCSc1nc(-c2ccc(O)c(O)c2)cc2nccn12 [material for Example 6]
Reply: 2000 to 10000 nM

* * *

molecular target: human Syk (GST-Syk) (Homo sapiens, UniProt P43405); construct: A cDNA fragment encoding human Syk openreading frame was cloned; made in house; host or cells: Sf21 insect cells (baculovirus, transfer vector pAcG2T); test: Syk tyrosine kinase inhibitory assay; type: biochemical; conditions: in vitro; compounds as yielded by solid phase synthesis, purity about 40 to 90%; read-out: Activity grade (IC50 class)
pIC50: −log10 of the molar value.
Assay metric: pIC50

Worked examples, 5 compounds total:
Ask: Form field - read-out: pIC50; system: human Syk (GST-Syk) (Homo sapiens, UniProt P43405); submitted item: `COc1ccc(-c2cc3ncnn3c(Nc3ccc(CCC(=O)O)cc3C(N)=O)n2)cc1OC`
Reply: > 6.30

Ask: Form field - read-out: pIC50; system: human Syk (GST-Syk) (Homo sapiens, UniProt P43405); submitted item: `COc1ccc(-c2cc3nccn3c(Nc3ccc(NCCN(C)C)cc3)n2)cc1OC`
Reply: > 6.30

Ask: Form field - read-out: pIC50; system: human Syk (GST-Syk) (Homo sapiens, UniProt P43405); submitted item: `COc1ccc(-c2cc3nccn3c(Nc3ccccc3S(C)(=O)=O)n2)cc1OC`
Reply: > 6.30

Ask: Form field - read-out: pIC50; system: human Syk (GST-Syk) (Homo sapiens, UniProt P43405); submitted item: `COc1ccc(-c2cc3nccn3c(N3CCC(=O)CC3)n2)cc1OC`
Reply: 5.70 to 6.30

Ask: Form field - read-out: pIC50; system: human Syk (GST-Syk) (Homo sapiens, UniProt P43405); submitted item: `COc1ccc(-c2cc3nccn3c(Nc3cccc(C(=N)N)c3)n2)cc1OC`
Reply: > 6.30

Others:
Ask: Form field - read-out: pIC50; system: human Syk (GST-Syk) (Homo sapiens, UniProt P43405); submitted item: `COc1ccc(-c2cc3nccn3c(N3CCN(c4ccc(C)cc4)CC3)n2)cc1OC`
Reply: 5.00 to 5.70

Ask: Form field - read-out: pIC50; system: human Syk (GST-Syk) (Homo sapiens, UniProt P43405); submitted item: `CCSc1nc(-c2ccc(OC(C)C)c(OC)c2)cc2nccn12`
Reply: > 6.30

Ask: Form field - read-out: pIC50; system: human Syk (GST-Syk) (Homo sapiens, UniProt P43405); submitted item: `CCSc1nc(-c2ccc(OCCCN3CCOCC3)c(OC)c2)cc2nccn12`
Reply: > 6.30

Ask: Form field - read-out: pIC50; system: human Syk (GST-Syk) (Homo sapiens, UniProt P43405); submitted item: `COc1ccc(-c2cc3nccn3c(Sc3nc4ccccc4s3)n2)cc1OC`
Reply: > 6.30

Ask: Form field - read-out: pIC50; system: human Syk (GST-Syk) (Homo sapiens, UniProt P43405); submitted item: COc1ccc(-c2cc3nccn3c(Nc3ccc4c(c3)CCC(C(=O)O)C4)n2)cc1OC (centres unmarked)
Reply: > 6.30

Ask: Form field - read-out: pIC50; system: human Syk (GST-Syk) (Homo sapiens, UniProt P43405); submitted item: `COc1ccc(-c2cc3nccn3c(N3CCC(c4ccc(O)cc4)CC3)n2)cc1OC`
Reply: 5.70 to 6.30

Ask: Form field - read-out: pIC50; system: human Syk (GST-Syk) (Homo sapiens, UniProt P43405); submitted item: `COc1ccc(-c2cc3nccn3c(N[C@@H](CO)Cc3ccccc3)n2)cc1OC`
Reply: 5.70 to 6.30

Ask: Form field - read-out: pIC50; system: human Syk (GST-Syk) (Homo sapiens, UniProt P43405); submitted item: `COc1cc(-c2cc3nccn3c(Sc3ccc(CCC(=O)O)cc3)n2)ccc1O`
Reply: > 6.30

Ask: Form field - read-out: pIC50; system: human Syk (GST-Syk) (Homo sapiens, UniProt P43405); submitted item: `COc1ccc(-c2cc3nccn3c(Nc3ccc(Br)cc3C(=O)O)n2)cc1OC`
Reply: > 6.30

Values from patent US6911443B2
